# credit: patent EP4793288A1

Target: B2M (UniProt P61769 21-119)
Sequence (P61769 21-119 limits assumed): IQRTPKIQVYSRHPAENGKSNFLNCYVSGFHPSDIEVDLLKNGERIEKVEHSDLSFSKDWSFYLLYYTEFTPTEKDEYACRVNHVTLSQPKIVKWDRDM
Experiment: ELISA
Readout label: binding result

2F1_LS#39 (antibody, human IgG1, kappa, V domains shown) VH: EVQLVESGGGLVQPGGSLRLSCAASGFTFSSYAMSWVRQAPGKGLEWVSRISGSGGYIYYADSVKGRFTISRDNSKNTLYLQMNSLRAEDTAVYYCAKEGTSSYRGWMDVWGQGTLVTVSS VL: DIQMTQSPSSLSASVGDRVTITCRASQSISRYLNWYQQKPGKAPKLLIYATSNLHSGVPSRFSGSGSGTDFTLTISSLQPEDFATYYCQQSYTSPWTFGQGTKVEIKR	no binding
2F1_LS#24 (antibody, human IgG1, kappa, V domains shown) VH: EVQLVESGGGLVQPGGSLRLSCAASGFTFSSYAMSWVRQAPGKGLEWVSRISGSGGYIYYADSVKGRFTISRDNSKNTLYLQMNSLRAEDTAVYYCAKEGTSSYRGWMDVWGQGTLVTVSS VL: DIQMTQSPSSLSASVGDRVTITCRASQSISNWLNWYQQKPGKAPKLLIYAASRLQSGVPSRFSGSGSGTDFTLTISSLQPEDFATYYCQQSYTSPWTFGQGTKVEIKR	no binding
2F1CDRH3#10 (antibody, human IgG1, kappa, V domains shown) VH: EVQLVESGGGLVQPGGSLRLSCAASGFTFSSYAMSWVRQAPGKGLEWVSRISGSGGYKYYADSVKGRFTISRDNSKNTLYLQMNSLRAEDTAVYYCAKEGTSSYRGWMDVWGQGTLVTVSS VL: IQMTQSPSSLSASVGDRVTITCRASQSISNYLNWYQQKPGKAPKLLIYATSTLQSGVPSRFSGSGSGTDFTLTISSLQPEDFATYYCQQSYTTPWTFGQGTKVEIKR	no binding
